# Test system: Alternaria solani
# test: Alternaria solani test in tomato (preventive, glasshouse)
# Format: in vivo
# test-settings: Alternaria solani, single compound, Conc. 0.05 ppm, preventive spray, read-out: Observed Efficacy
Catalogue of pest or weed control at 0.05 ppm values
parameter: pest or weed control at 0.05 ppm (%)

{"molecule": "CC1COC(Cn2cncn2)(c2ccc(Oc3ccc(Cl)cc3)cc2Cl)O1 (stereo not shown)", "unit-name": "%", "obs-value": 42}
{"molecule": "OC(Cc1ccccc1Cl)(Cn1nc[nH]c1=S)C1(Cl)CC1 (stereo not shown)", "unit-name": "%", "obs-value": 20}
{"molecule": "O=C1c2ccccc2C(=O)N1SC(Cl)(Cl)Cl", "unit-name": "%", "obs-value": 12}
{"molecule": "COC(=O)N(OC)c1ccccc1COc1ccn(-c2ccc(Cl)cc2)n1", "unit-name": "%", "obs-value": 21}
{"molecule": "O=C(Nc1ccccc1-c1ccc(Cl)cc1)c1cccnc1Cl", "unit-name": "%", "obs-value": 13}
{"molecule": "CNC(=O)/C(=N/OC)c1ccccc1Oc1ccccc1", "unit-name": "%", "obs-value": 26}
{"molecule": "CC(C)(C)C(O)(CCc1ccc(Cl)cc1)Cn1cncn1 (stereo not shown)", "unit-name": "%", "obs-value": 34}

The values you see were collected from patent US20230413824A1.
